System under test: UniProt P25103
Sequence (P25103 whole entry): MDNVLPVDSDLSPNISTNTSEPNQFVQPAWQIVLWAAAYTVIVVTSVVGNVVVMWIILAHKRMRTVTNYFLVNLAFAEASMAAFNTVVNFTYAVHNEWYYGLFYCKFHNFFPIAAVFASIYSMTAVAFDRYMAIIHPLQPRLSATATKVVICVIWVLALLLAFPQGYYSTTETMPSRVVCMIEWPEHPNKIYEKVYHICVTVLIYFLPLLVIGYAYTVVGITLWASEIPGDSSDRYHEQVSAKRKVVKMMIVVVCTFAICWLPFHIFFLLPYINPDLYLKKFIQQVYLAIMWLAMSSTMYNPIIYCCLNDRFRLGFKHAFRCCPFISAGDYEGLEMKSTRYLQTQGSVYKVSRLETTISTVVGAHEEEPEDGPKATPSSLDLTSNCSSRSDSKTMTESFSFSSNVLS
pIC50: −log10 of the molar value.
In this section we review reported pIC50 values for a set of compounds.
Reported property: pIC50

[[record]]
compound = "CC(C)C[C@H](NC(=O)[C@@H]1CCCN1C(=O)[C@H](Cc1ccccc1)NC(=O)CNC(=O)[C@@H](C)NC(=O)[C@@H](N)Cc1ccc(O)cc1)C(=O)N[C@@H](Cc1c[nH]c2ccccc12)C(=O)OCc1cc(C(F)(F)F)cc(C(F)(F)F)c1 [TY001]"
data_value = 11.30

[[record]]
compound = "CC(C)C[C@H](NC(=O)[C@@H]1CCCN1C(=O)[C@H](Cc1ccccc1)NC(=O)CNC(=O)[C@@H](C)NC(=O)[C@@H](N)Cc1ccc(O)cc1)C(=O)N[C@@H](Cc1c[nH]c2ccccc12)C(=O)N(C)Cc1ccccc1 [TY010, H-Tyr-D-Ala-Gly-Phe-Pro-Leu-Trp-NMe-Bzl]"
data_value = 8.50

